Target: Ubiquitin carboxyl-terminal hydrolase 1 (Homo sapiens) (UniProt O94782)
Sequence (O94782 whole entry, looked up): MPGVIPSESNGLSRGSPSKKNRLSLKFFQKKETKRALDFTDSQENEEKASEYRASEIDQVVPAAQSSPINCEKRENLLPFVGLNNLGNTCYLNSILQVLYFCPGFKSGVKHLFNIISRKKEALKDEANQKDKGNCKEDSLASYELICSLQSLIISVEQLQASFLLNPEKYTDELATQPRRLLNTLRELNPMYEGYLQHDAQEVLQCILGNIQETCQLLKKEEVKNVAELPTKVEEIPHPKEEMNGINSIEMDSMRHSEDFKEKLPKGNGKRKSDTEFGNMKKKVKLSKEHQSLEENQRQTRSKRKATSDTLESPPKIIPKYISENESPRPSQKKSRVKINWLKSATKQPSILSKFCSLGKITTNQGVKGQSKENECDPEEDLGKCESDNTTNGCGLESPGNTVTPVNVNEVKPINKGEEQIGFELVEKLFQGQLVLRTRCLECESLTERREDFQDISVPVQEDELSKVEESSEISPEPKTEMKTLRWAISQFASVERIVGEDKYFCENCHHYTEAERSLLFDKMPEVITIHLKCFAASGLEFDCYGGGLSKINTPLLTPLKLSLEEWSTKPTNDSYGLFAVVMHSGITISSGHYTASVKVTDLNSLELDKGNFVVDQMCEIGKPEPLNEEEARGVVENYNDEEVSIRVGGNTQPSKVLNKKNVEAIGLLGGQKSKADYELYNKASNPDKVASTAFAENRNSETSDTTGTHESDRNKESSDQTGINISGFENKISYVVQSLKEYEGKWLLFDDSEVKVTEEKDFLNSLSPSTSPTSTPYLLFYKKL
Test: Inhibitors of USP1/UAF1: Pilot qHTS (AID 504865); further: nearly all actives have a fitted effect of over 35% in size
Details: purified USP1/UAF1, Ub-rhodamine cleavage fluorescence; series mostly up to 54.9 µM
Inconclusive results are not listed. The source made the active and inactive calls. The call rests on the fitted dose curve; in most records, active means well fitted inhibition curve with a large enough effect; inconclusive means small, poorly fitted or top-dose-only effect; inactive means flat fitted curve, though single readings scatter.
Outcomes: active, inactive

{"columns": ["compound", "assigned.class"],
 "data": [
  ["CCNc1ncc2nc(C)c(=O)n(C)c2n1", "inactive"],
  ["CN1CCN(c2ncc3nc(-c4ccc(Cl)cc4)c(=O)n(Cc4cccs4)c3n2)CC1", "inactive"],
  ["CN(Cc1ccco1)c1cc(-c2ccccc2Cl)ncn1", "inactive"],
  ["COc1ccccc1-c1cncnc1-n1ccnc1", "inactive"],
  ["CCNc1ncc2nc(-c3ccc(OC)cc3)c(=O)n(CCOC)c2n1", "inactive"],
  ["CN(C)C(=O)c1ccc(-c2cc(NCc3cccnc3)ncn2)cc1", "inactive"],
  ["O=c1c(-c2ccc(F)cc2)nc2cnc(Nc3ccccc3)nc2n1C[C@H]1CCCO1", "inactive"],
  ["CN=C(N)NCCCC(N)C(=O)O (centres undefined)", "inactive"],
  ["CNc1ncnc2ccc(-c3ccccc3C)cc12", "inactive"],
  ["Cc1cnc(CNc2ncncc2-c2ccc(C(=O)N(C)C)cc2)cn1", "inactive"],
  ["COc1cccc(Nc2ncc3nc(C)c(=O)n(C)c3n2)c1", "inactive"],
  ["COc1ccc(-c2nc3cnc(Nc4ccccc4)nc3n(C[C@H]3CCCO3)c2=O)cc1", "inactive"],
  ["COc1cccc(Cn2c(=O)cnc3cnc(Oc4ccccc4)nc32)c1", "inactive"],
  ["COc1ccc(-n2c(=O)c(-c3cccs3)nc3cnc(N4CCOCC4)nc32)cc1", "inactive"],
  ["O=c1c(-c2ccccc2)nc2cnc(N3CCNCC3)nc2n1-c1ccccc1", "inactive"],
  ["CN(C)Cc1ccccc1-c1nc(NCc2cccs2)c2ccccc2n1", "inactive"],
  ["CN(C)c1ncc2ncc(=O)n(CCc3ccccc3)c2n1", "inactive"],
  ["CCNc1ncc2nc(-c3cn(C)c4ccccc34)c(=O)n(Cc3cccc(OC)c3)c2n1", "inactive"],
  ["COc1cccc(-c2nccc(NCc3cccc(C)c3)n2)c1", "active"],
  ["c1cncc(CNc2ncnc3ccc(-c4ccoc4)cc23)c1", "inactive"],
  ["CC(=O)NCCNc1cc(-c2ccccc2CN(C)C)ncn1", "inactive"],
  ["Cc1nc2cnc(N3CCOCC3)nc2n(C)c1=O", "inactive"],
  ["CC(=O)NCCNc1ncnc2ccc(-c3ccoc3)cc12", "inactive"],
  ["N#Cc1cccc(-c2cncnc2NCc2cccs2)c1", "inactive"]
]}
